- PROTOCOL_DESCRIPTION: in vitro
- DETAILS: human, Caco-2, pH 6.5, Permeability, Rep. 1-3, B-A, Caco-2, pH 6.5/7.4, 10 μM
MEASURED_PROPERTY: Papp B→A at 10 μM (×10⁻⁶ cm/s)
Your answer is read as ×10⁻⁶ cm/s, so omit the unit and give the number.

Form: compound = CC(C)NCC(O)COc1cccc2ccccc12 (stereo not shown) ; Papp B→A at 10 μM = 48.8

###

- TARGET_SYSTEM: hERG (human ether-a-go-go-related gene) channel current (Homo sapiens)
- Sequence (Q12809 whole entry): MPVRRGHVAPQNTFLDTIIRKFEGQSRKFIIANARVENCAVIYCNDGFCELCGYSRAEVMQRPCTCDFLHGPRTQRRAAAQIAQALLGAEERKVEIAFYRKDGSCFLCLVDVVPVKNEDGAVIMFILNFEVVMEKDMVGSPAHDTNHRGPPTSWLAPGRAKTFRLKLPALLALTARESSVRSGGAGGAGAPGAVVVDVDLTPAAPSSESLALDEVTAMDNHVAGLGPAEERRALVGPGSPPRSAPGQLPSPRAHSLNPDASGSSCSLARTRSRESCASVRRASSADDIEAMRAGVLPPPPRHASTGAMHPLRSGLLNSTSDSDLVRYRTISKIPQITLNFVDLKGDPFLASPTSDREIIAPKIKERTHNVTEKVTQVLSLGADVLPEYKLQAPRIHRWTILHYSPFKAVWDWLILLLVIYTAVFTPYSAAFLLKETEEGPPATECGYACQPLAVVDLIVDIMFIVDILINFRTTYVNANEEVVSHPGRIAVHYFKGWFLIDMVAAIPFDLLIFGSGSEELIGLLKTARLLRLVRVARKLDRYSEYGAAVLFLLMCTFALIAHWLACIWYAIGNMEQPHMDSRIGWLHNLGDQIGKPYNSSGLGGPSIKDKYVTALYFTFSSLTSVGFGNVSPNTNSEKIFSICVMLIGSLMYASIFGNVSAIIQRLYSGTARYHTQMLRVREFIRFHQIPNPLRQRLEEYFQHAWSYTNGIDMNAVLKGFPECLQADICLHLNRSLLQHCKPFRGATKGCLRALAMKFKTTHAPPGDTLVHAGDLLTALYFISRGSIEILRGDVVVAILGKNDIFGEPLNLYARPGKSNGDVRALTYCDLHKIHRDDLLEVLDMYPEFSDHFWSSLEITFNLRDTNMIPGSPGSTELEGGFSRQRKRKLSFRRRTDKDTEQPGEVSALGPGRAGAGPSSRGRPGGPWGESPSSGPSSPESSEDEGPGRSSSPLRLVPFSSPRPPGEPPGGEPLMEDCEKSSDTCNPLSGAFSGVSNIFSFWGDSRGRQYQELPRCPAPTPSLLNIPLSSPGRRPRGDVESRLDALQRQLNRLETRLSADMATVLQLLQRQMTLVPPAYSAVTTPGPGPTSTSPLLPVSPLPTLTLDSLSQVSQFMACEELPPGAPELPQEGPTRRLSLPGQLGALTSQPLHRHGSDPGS
- PROTOCOL_DESCRIPTION: Non GLP hERG channel current study (manual patch)
MEASURED_PROPERTY: pIC50
The meaning of pIC50 here: minus log10 of the concentration in molar units.

Form: compound = CCC(=O)C(C[C@@H](C)N(C)C)(c1ccccc1)c1ccccc1 [levomethadone] ; pIC50 = 6.08

###

- PROTOCOL_DESCRIPTION: in vitro
- DETAILS: human, Caco-2, pH 6.5, Permeability, Mean
Documented Papp B→A across a set of compounds
Your answer is read as ×10⁻⁶ cm/s, so omit the unit and give the number.

Worked examples, 2 compounds total:
COMPOUND: CC(C)NCC(O)COc1cccc2ccccc12 (stereo not drawn)
MEASURED_PROPERTY: Papp B→A
ENDPOINT_UNIT: ×10⁻⁶ cm/s
QUANTITATIVE_READOUT: 47.5
//
COMPOUND: CNC(=C[N+](=O)[O-])NCCSCc1ccc(CN(C)C)o1
MEASURED_PROPERTY: Papp B→A
ENDPOINT_UNIT: ×10⁻⁶ cm/s
QUANTITATIVE_READOUT: 2.4

API: the following record is the query input.
Form: compound = COc1cc2c(c(OC)c1OC)-c1ccc(OC)c(=O)cc1[C@@H](NC(C)=O)CC2 ; Papp B→A = 7.3

###

- PROTOCOL_DESCRIPTION: in vitro
- DETAILS: human, Caco-2, pH 6.5, Permeability, Rep. 1-3
Counter-ions that a name gives are not always drawn.
MEASURED_PROPERTY: Papp B→A (×10⁻⁶ cm/s)
Your answer is read as ×10⁻⁶ cm/s, so omit the unit and give the number.

Worked examples, 3 molecules total:
MOLECULE: CCC(=O)C(C[C@H](C)N(C)C)(c1ccccc1)c1ccccc1 [esmethadone HCl]
Papp B→A / ×10⁻⁶ cm/s: 29.4

MOLECULE: CC(C)NCC(O)COc1cccc2ccccc12 (stereo not shown) [Propranolol]
Papp B→A / ×10⁻⁶ cm/s: 48.1

MOLECULE: CNC(=C[N+](=O)[O-])NCCSCc1ccc(CN(C)C)o1 [Ranitidine]
Papp B→A / ×10⁻⁶ cm/s: 2.54

API: the following record is the query input.
Form: molecule = COc1cc2c(c(OC)c1OC)-c1ccc(OC)c(=O)cc1[C@@H](NC(C)=O)CC2 [Colchicine] ; Papp B→A = 7.69

###

- TARGET_SYSTEM: hERG (Homo sapiens, UniProt Q12809)
- Sequence (Q12809 whole entry): as above
- PROTOCOL_DESCRIPTION: Non GLP hERG channel current study (manual patch)
- Assay type: cell-based
- DETAILS: human; 3 AM; read-out: Inhibition of hERG current (Mean, SEM; n=4)
MEASURED_PROPERTY: inhibition at 3 μM (%)
Your answer is read as %, so omit the unit and give the number.

Form: compound = CCC(=O)C(CC(C)N(C)C)(c1ccccc1)c1ccccc1 (racemic) [racemic methadone] ; inhibition at 3 μM = 71.1

###

- TARGET_SYSTEM: UniProt:Q12809
- PROTOCOL_DESCRIPTION: Non GLP hERG channel current study (manual patch)
- Type: cell-based
- DETAILS: human; 0.3 μM; read-out: Inhibition of hERG current (Mean, SEM; n=4)
MEASURED_PROPERTY: inhibition at 0.3 µM (%)
Your answer is read as %, so omit the unit and give the number.

Form: molecule = CCC(=O)C(CC(C)N(C)C)(c1ccccc1)c1ccccc1 (racemic) [racemic methadone] ; inhibition at 0.3 µM = 33.4

###

- PROTOCOL_DESCRIPTION: Equilibrium solubility study
- DETAILS: 37 °C, pH 1.2, simulated gastric fluid, thermodynamic from solid, Equilibrium solubility, replicates, pH 1.2, 37° C., individual replicates
Counter-ions that a name gives are not always drawn.
MEASURED_PROPERTY: solubility thermodynamic

Form: compound = CCC(=O)C(C[C@H](C)N(C)C)(c1ccccc1)c1ccccc1 [esmethadone HCl] ; solubility thermodynamic = 62.1 mg/mL

###

- TARGET_SYSTEM: hERG (human ether-à-go-go-related gene) channel current (Homo sapiens)
- Sequence (Q12809 whole entry): as above
- PROTOCOL_DESCRIPTION: GLP hERG channel current study of esmethadone
MEASURED_PROPERTY: IC50 (nM)
Your answer is read as nM, so omit the unit and give the number.

Form: molecule = CCC(=O)C(C[C@H](C)N(C)C)(c1ccccc1)c1ccccc1 ; IC50 = 1000

###

- TARGET_SYSTEM: UniProt Q12809
- PROTOCOL_DESCRIPTION: Non GLP hERG channel current study (manual patch)
- Format: cell-based
- DETAILS: human; 0.366 μM (n=5), 35-37° C.; read-out: Inhibition of hERG current (Mean±SEM)
MEASURED_PROPERTY: inhibition at 0.366 µM (%)
Your answer is read as %, so omit the unit and give the number.

Form: molecule = CCC(=O)C(C[C@@H](C)N(C)C)(c1ccccc1)c1ccccc1 ; inhibition at 0.366 µM = 36

###

- PROTOCOL_DESCRIPTION: in vitro
- DETAILS: human, Caco-2, Percent Recovery, Rep. 1-3, A-B, 1 μg/mL
Structures can show the parent of a compound that is named as a salt.
MEASURED_PROPERTY: recovery (%)
Your answer is read as %, so omit the unit and give the number.

Form: compound = CCC(=O)C(C[C@H](C)N(C)C)(c1ccccc1)c1ccccc1 [esmethadone HCl] ; recovery = 53

###

- PROTOCOL_DESCRIPTION: in vitro
- DETAILS: human, Caco-2, Percent Recovery, Mean, A-B, 10 μM
MEASURED_PROPERTY: recovery (%)
Your answer is read as %, so omit the unit and give the number.

Worked examples, 2 compounds total:
COMPOUND: CC(C)NCC(O)COc1cccc2ccccc12 (stereo not drawn)
QUANTITATIVE_READOUT: 104

COMPOUND: CNC(=C[N+](=O)[O-])NCCSCc1ccc(CN(C)C)o1
QUANTITATIVE_READOUT: 101

API: the following record is the query input.
Form: compound = CC(CCc1ccccc1)NCC(O)c1ccc(O)c(C(N)=O)c1 (stereo not drawn) ; recovery = 117

###

- PROTOCOL_DESCRIPTION: in vitro
- DETAILS: human, Caco-2, pH 6.5, Permeability, Rep. 1-3, B-A, Caco-2, pH 6.5/7.4, 10 μM
MEASURED_PROPERTY: Papp B→A (×10⁻⁶ cm/s)
Your answer is read as ×10⁻⁶ cm/s, so omit the unit and give the number.

Form: molecule = CC(CCc1ccccc1)NCC(O)c1ccc(O)c(C(N)=O)c1 (stereo not shown) [Labetalol] ; Papp B→A = 48.7

###

- PROTOCOL_DESCRIPTION: Equilibrium solubility study
- DETAILS: 37 °C, pH 6.8, aqueous buffer, thermodynamic from solid, Equilibrium solubility, Mean, pH 6.8, 37° C.
Where a name gives a salt, the structure may show the parent alone.
MEASURED_PROPERTY: solubility thermodynamic (µg/mL)
Your answer is read as µg/mL, so omit the unit and give the number.

Form: compound = CCC(=O)C(C[C@H](C)N(C)C)(c1ccccc1)c1ccccc1 [esmethadone HCl] ; solubility thermodynamic = 3200

###

- TARGET_SYSTEM: hERG (Homo sapiens, UniProt Q12809)
- PROTOCOL_DESCRIPTION: Non GLP hERG channel current study (manual patch)
- Format: cell-based
- DETAILS: human; 1 uM; read-out: Inhibition of hERG current (Mean, SEM; n=4)
MEASURED_PROPERTY: inhibition at 1 µM (%)
Your answer is read as %, so omit the unit and give the number.

Form: molecule = CCC(=O)C(CC(C)N(C)C)(c1ccccc1)c1ccccc1 (racemic) [racemic methadone] ; inhibition at 1 µM = 43.6

###

- PROTOCOL_DESCRIPTION: in vitro
- DETAILS: simulated gi fluid, Half-Life, Rep. 1-3, simulated gastric fluid, 37° C., 10 μM
MEASURED_PROPERTY: half-life (min)
Your answer is read as min, so omit the unit and give the number.

Form: molecule = CC[C@H]1OC(=O)[C@H](C)[C@@H](O[C@H]2C[C@@](C)(OC)[C@@H](O)[C@H](C)O2)[C@H](C)[C@@H](O[C@@H]2O[C@H](C)C[C@H](N(C)C)[C@H]2O)[C@](C)(O)C[C@@H](C)C(=O)[C@H](C)[C@@H](O)[C@]1(C)O [Erythromycin, reference compound] ; half-life = 6.4
